Recorded Phage binding ELISA signal, Anti-PSMA Fab by entry
molecular target: T1, PSMA Fab (006 PSMA Fab); assay: phage ELISA; biotinylated PSMA Fab on neutravidin plate, clonal phage supernatant, anti-M13 HRP detection; blocking buffer alone
T1 construct: also called Anti-PSMA Fab; anti-PSMA Fab
Measured endpoint: Phage binding ELISA signal, Anti-PSMA Fab

| Binder | Measurement |
| --- | --- |
| IEMMCRPSWMCDWL (Peptide-180 library clone, tested as clonal phage supernatant (peptide fused to pIII of the bacteriophage)) [Phage-3056] | 2.16 |
| VDKVCRPMWMCAGF (Peptide-180 library clone, tested as clonal phage supernatant (peptide fused to pIII of the bacteriophage)) [Phage-3046] | 2.17 |
| VAPSCVPLWMCVGM (Peptide-180 library clone, tested as clonal phage supernatant (peptide fused to pIII of the bacteriophage)) [Phage-3053] | 2.16 |
| EFAMCRPVWMCWGF (Peptide-180 library clone, tested as clonal phage supernatant (peptide fused to pIII of the bacteriophage)) [Phage-3059] | 2.15 |
| VGNMCVPEWMCVGF (Peptide-180 library clone, tested as clonal phage supernatant (peptide fused to pIII of the bacteriophage)) [Phage-3047] | 2.17 |
| TGPVCIPKWMCFGF (Peptide-180 library clone, tested as clonal phage supernatant (peptide fused to pIII of the bacteriophage)) [Phage-3057] | 2.15 |
| PVELCRPAWMCWGF (Peptide-180 library clone, tested as clonal phage supernatant (peptide fused to pIII of the bacteriophage)) [Phage-3055] | 2.16 |
| PGQVCIPEWMCTGF (Peptide-180 library clone, tested as clonal phage supernatant (peptide fused to pIII of the bacteriophage)) [Phage-3051] | 2.16 |
